Hello, the source for this data is patent US20100022531A1, in case you need it.

Measured inhibition at 0.3 µM by item
# experimental_target: P2X7 receptor (Homo sapiens, UniProt Q99572)
# Construct: host or cells: THP-1 cells differentiated with LPS and IFN-γ
# Sequence (Q99572 1-595): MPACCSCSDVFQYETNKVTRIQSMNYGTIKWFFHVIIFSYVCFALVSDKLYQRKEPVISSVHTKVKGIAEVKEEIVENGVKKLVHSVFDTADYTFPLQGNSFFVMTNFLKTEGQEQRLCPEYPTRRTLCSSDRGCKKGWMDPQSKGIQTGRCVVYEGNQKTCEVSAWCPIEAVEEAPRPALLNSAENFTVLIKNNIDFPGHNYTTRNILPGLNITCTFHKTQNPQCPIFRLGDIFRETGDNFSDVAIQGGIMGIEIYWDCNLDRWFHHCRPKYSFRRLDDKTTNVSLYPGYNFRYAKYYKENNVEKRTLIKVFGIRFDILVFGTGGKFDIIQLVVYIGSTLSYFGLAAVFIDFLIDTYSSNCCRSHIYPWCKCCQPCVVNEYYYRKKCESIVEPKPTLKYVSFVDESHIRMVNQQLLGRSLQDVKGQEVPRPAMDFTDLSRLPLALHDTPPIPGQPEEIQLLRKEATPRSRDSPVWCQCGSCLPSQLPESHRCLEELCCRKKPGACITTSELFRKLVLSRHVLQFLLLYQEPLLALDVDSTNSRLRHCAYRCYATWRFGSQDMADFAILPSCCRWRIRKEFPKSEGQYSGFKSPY
# protocol_notes: Alternate method for IL-1β release assay (differentiated THP-1 cells, BzATP-stimulated, ELISA)
# Assay type: cell-based
# condition_info: P2X7; 0.3 μM compound (symbols * to ****); read-out: IL-1β % inhib @ 0.3 μM

[
  {
    "compound": "CCc1ccc(CN(C)CC(=O)N2CCc3c(ncnc3NCC3C4CC5CC(C4)CC3C5)C2)cc1 (stereo not shown)",
    "parameter_measured": "inhibition at 0.3 µM",
    "test_result": "25 to 50%"
  }
]

Reported inhibition at 0.3 µM (P2X7 receptor (Homo sapiens, UniProt Q99572)) for entry CN(CC(=O)N1CCc2c(ncnc2NCC2C3CC4CC(C3)CC2C4)C1)C1CCCCC1 (stereo not shown) is 50 to 75%

The observed inhibition at 0.3 µM for CCN1CCN(CC(=O)N2CCc3c(ncnc3NCC3C4CC5CC(C4)CC3C5)C2)CC1 (stereo not shown) when tested with P2X7 receptor (Homo sapiens, UniProt Q99572) stands at 25 to 50%

# value of inhibition at 0.3 µM, P2X7 receptor (Homo sapiens, UniProt Q99572), item Brc1ccccc1CN1CCc2c(ncnc2NCC23CC4CC(CC(C4)C2)C3)C1 = 0 to 25%

The recorded inhibition at 0.3 µM with P2X7 receptor (Homo sapiens, UniProt Q99572) for COc1ccc(CN(C)CC(=O)N2CCc3c(ncnc3NCC3C4CC5CC(C4)CC3C5)C2)cc1OC (stereo not shown) was 0 to 25%

Entry CN(CC(=O)N1CCc2c(ncnc2NCC2C3CC4CC(C3)CC2C4)C1)Cc1ccc(Cl)cc1 (stereo not shown) under P2X7 receptor (Homo sapiens, UniProt Q99572) had inhibition at 0.3 µM of 25 to 50%

Tested on P2X7 receptor (Homo sapiens, UniProt Q99572): FC(F)(F)c1ccc(CN2CCc3c(ncnc3NCC34CC5CC(CC(C5)C3)C4)C2)cc1 . Observed inhibition at 0.3 µM: 0 to 25%

inhibition at 0.3 µM value, target or system P2X7 receptor (Homo sapiens, UniProt Q99572), for Brc1cc2c(cc1CN1CCc3c(ncnc3NCC34CC5CC(CC(C5)C3)C4)C1)OCO2 : 0 to 25%

# inhibition at 0.3 µM measured on P2X7 receptor (Homo sapiens, UniProt Q99572) for item FC1(F)Oc2ccc(CN3CCc4c(ncnc4NCC45CC6CC(CC(C6)C4)C5)C3)cc2O1 = 0 to 25%

# CC(C)(C)CN1CCc2c(ncnc2NCC23CC4CC(CC(C4)C2)C3)C1 with P2X7 receptor (Homo sapiens, UniProt Q99572): inhibition at 0.3 µM is > 75%

Log: P2X7 receptor (Homo sapiens, UniProt Q99572), compound O=C(CN1CCC(C(F)(F)F)CC1)N1CCc2c(ncnc2NCC2C3CC4CC(C3)CC2C4)C1 (stereo not shown) , inhibition at 0.3 µM = 0 to 25%

Readout inhibition at 0.3 µM for COc1cc(CN2CCc3c(ncnc3NCC34CC5CC(CC(C5)C3)C4)C2)ccc1OCc1ccccc1 , test system P2X7 receptor (Homo sapiens, UniProt Q99572), was 0 to 25%

Fill in: P2X7 receptor (Homo sapiens, UniProt Q99572) inhibition at 0.3 µM for COc1cc(CN2CCc3c(ncnc3NCC34CC5CC(CC(C5)C3)C4)C2)ccc1F = > 75%

Short answer on P2X7 receptor (Homo sapiens, UniProt Q99572) for FC(F)(F)Oc1cccc(CN2CCc3c(ncnc3NCC34CC5CC(CC(C5)C3)C4)C2)c1 , inhibition at 0.3 µM: > 75%

Observed inhibition at 0.3 µM, P2X7 receptor (Homo sapiens, UniProt Q99572), O=C(c1cnn(-c2ccccc2)c1C(F)(F)F)N1CCc2c(ncnc2NCC23CC4CC(CC(C4)C2)C3)C1 : > 75%

Lab note: compound CN(CC(=O)N1CCc2c(ncnc2NCC2C3CC4CC(C3)CC2C4)C1)Cc1ccc(C(F)(F)F)cc1 (stereo not shown) tested on P2X7 receptor (Homo sapiens, UniProt Q99572); recorded inhibition at 0.3 µM was 25 to 50%

----------
In this section, each of the molecules is paired with its reported inhibition at 0.3 µM.
# experimental_target: P2X7 receptor (Homo sapiens, UniProt Q99572)
# Construct: host or cells: THP-1 cells differentiated with LPS and IFN-γ
# Sequence (Q99572 1-595): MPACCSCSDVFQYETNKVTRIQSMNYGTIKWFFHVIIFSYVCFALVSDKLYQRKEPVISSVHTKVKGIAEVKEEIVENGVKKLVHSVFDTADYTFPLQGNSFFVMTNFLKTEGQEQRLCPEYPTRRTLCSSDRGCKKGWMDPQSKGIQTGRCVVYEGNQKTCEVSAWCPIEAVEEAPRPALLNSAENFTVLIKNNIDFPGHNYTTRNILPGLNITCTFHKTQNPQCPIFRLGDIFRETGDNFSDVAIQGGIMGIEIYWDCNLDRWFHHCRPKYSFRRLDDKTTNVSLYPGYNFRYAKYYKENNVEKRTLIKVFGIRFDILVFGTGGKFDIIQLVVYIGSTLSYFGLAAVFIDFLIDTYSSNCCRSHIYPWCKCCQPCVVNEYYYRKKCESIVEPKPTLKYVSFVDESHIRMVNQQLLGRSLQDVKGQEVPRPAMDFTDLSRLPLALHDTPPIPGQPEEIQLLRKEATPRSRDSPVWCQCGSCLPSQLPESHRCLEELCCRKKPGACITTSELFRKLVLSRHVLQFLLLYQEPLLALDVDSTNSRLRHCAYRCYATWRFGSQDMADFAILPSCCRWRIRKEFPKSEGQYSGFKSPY
# protocol_notes: Alternate method for IL-1β release assay (differentiated THP-1 cells, BzATP-stimulated, ELISA)
# Type: cell-based
# condition_info: P2X7; 0.3 μM compound (symbols * to ****); read-out: IL-1β % inhib @ 0.3 μM

Sample answers from the record:
[
  {
    "molecule": "CN(CCC#N)CC(=O)N1CCc2c(ncnc2NCC2C3CC4CC(C3)CC2C4)C1 (centres unmarked)",
    "inhibition at 0.3 µM": "0 to 25%"
  },
  {
    "molecule": "CCOc1cccc(CN2CCc3c(ncnc3NCC34CC5CC(CC(C5)C3)C4)C2)c1",
    "inhibition at 0.3 µM": "50 to 75%"
  },
  {
    "molecule": "CN1CCC(N(C)CC(=O)N2CCc3c(ncnc3NCC3C4CC5CC(C4)CC3C5)C2)C1 (centres unmarked)",
    "inhibition at 0.3 µM": "0 to 25%"
  },
  {
    "molecule": "Clc1ccc(CN2CCc3c(ncnc3NCC34CC5CC(CC(C5)C3)C4)C2)cn1",
    "inhibition at 0.3 µM": "> 75%"
  },
  {
    "molecule": "COc1cc(F)c(CN2CCc3c(ncnc3NCC34CC5CC(CC(C5)C3)C4)C2)c(F)c1",
    "inhibition at 0.3 µM": "0 to 25%"
  },
  {
    "molecule": "O=C(CN1CCN(CC(=O)N2CCc3c(ncnc3NCC34CC5CC(CC(C5)C3)C4)C2)CC1)N1CCOCC1",
    "inhibition at 0.3 µM": "0 to 25%"
  },
  {
    "molecule": "COc1ccc(OC)c(CN2CCc3c(ncnc3NCC34CC5CC(CC(C5)C3)C4)C2)c1",
    "inhibition at 0.3 µM": "> 75%"
  },
  {
    "molecule": "COc1ccccc1CN1CCc2c(ncnc2NCC23CC4CC(CC(C4)C2)C3)C1",
    "inhibition at 0.3 µM": "> 75%"
  }
]

For the molecule O=C(CNC1CCN(Cc2ccccc2)CC1)N1CCc2c(ncnc2NCC23CC4CC(CC(C4)C2)C3)C1 , the measured inhibition at 0.3 µM on P2X7 receptor (Homo sapiens, UniProt Q99572) was 25 to 50%

// assay P2X7 receptor (Homo sapiens, UniProt Q99572), entry CN(C)CCCN(C)CC(=O)N1CCc2c(ncnc2NCC2C3CC4CC(C3)CC2C4)C1 (centres unmarked) , inhibition at 0.3 µM value = 0 to 25%

inhibition at 0.3 µM on P2X7 receptor (Homo sapiens, UniProt Q99572) for Fc1ccc(Br)cc1CN1CCc2c(ncnc2NCC23CC4CC(CC(C4)C2)C3)C1 is 0 to 25%

Given the molecule O=C(CN1CCC1)N1CCc2c(ncnc2NCC2C3CC4CC(C3)CC2C4)C1 (centres unmarked) and test system P2X7 receptor (Homo sapiens, UniProt Q99572), the measured inhibition at 0.3 µM is 0 to 25%

Simply: Cc1cccc(CN2CCc3c(ncnc3NCC34CC5CC(CC(C5)C3)C4)C2)c1 , P2X7 receptor (Homo sapiens, UniProt Q99572), inhibition at 0.3 µM = > 75%
